# subjectOfTest: human thyroid receptor alpha ligand-binding domain (THRα) (Homo sapiens, UniProt P10827)
# Sequence (P10827 163-410 isoform P10827-2 limits assumed, other chains not shown): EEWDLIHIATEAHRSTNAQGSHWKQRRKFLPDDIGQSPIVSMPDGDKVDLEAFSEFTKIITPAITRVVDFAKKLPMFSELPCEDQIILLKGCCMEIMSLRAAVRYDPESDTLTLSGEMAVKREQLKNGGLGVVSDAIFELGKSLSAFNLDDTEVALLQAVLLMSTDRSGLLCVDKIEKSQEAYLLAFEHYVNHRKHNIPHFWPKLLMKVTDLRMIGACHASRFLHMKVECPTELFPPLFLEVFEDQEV
# protocolDescription: THR Biochemical Assay (Assay 1): TR-FRET thyroid receptor coactivator assay, alpha LBD
# conditionSet: TR-FRET coactivator recruitment, agonist EC50, read-out: Activity category Assay 1 THRα (EC50)
endpoint: EC50

For orientation, consider the following solved cases.
| compound | EC50 |
| --- | --- |
| Cc1cc(OC(F)C(=O)O)c(C)c(C)c1Cc1ccc2[nH]cc(C(C)C)c2n1 (centres unmarked) | > 25000 nM |
| Cc1cc(OC(C)(C)C(=O)O)c(C)c(C)c1Cc1ccc2[nH]cc(C(C)C)c2n1 | > 25000 nM |
| Cc1cc(OCC(=O)O)cc(C)c1Cc1ccc2[nH]cc(C(C)C)c2n1 | 50 to 250 nM |
| Cc1cc(OCc2noc(=O)[nH]2)c(C)c(C)c1Cc1ccc2[nH]cc(C(C)C)c2n1 | > 25000 nM |

Here are 6 compounds. What values of EC50 were reported for them?
1. Cc1nc(OCC(=O)O)c(C)c(C)c1Cc1ccc2[nH]cc(C(C)C)c2n1
2. CCOC(=O)C(=O)Nc1cc(C)c(Cc2ccc3[nH]cc(C(C)C)c3n2)c(C)c1
3. Cc1cc(OCC(=O)O)c(C)c(C)c1Cc1ccc2[nH]cc(C(C)C)c2n1
4. Cc1cc(OCc2nn[nH]n2)c(C)c(C)c1Cc1ccc2[nH]cc(C(C)C)c2n1
5. Cc1cc(NC(=O)C(=O)O)cc(C)c1Cc1ccc2[nH]cc(C(C)C)c2n1
6. Cc1cc(OC(C)C(=O)O)c(C)c(C)c1Cc1ccc2[nH]cc(C(C)C)c2n1 (centres unmarked)

1: 1000 to 25000 nM; 2: < 50 nM; 3: 250 to 1000 nM; 4: > 25000 nM; 5: < 50 nM; 6: > 25000 nM

Field EC50 (system: human thyroid receptor alpha ligand-binding domain (THRα) (Homo sapiens, UniProt P10827)) for entry Cc1cc(NC(=O)c2noc(=O)[nH]2)cc(C)c1Cc1ccc2[nH]cc(C(C)C)c2n1 = < 50 nM

---

# subjectOfTest: human thyroid receptor beta ligand-binding domain (THRβ) (Homo sapiens)
# Construct: purchased Invitrogen
# Sequence (P10828 217-461 limits assumed): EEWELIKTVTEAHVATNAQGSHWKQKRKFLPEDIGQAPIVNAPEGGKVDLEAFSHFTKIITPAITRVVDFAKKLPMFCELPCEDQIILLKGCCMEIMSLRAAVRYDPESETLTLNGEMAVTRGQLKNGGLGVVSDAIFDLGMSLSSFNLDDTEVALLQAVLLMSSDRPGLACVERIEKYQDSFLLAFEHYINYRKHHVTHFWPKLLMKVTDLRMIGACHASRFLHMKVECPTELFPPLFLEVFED
# protocolDescription: THR Biochemical Assay (Assay 1): TR-FRET thyroid receptor beta coactivator assay
# conditionSet: TR-FRET coactivator recruitment, THRβ LBD, Emax; read-out: Activity category Assay 1 THRβ (Emax)
endpoint: Emax

For orientation, consider the following solved cases.
| compound | result |
| --- | --- |
| Cc1cc(OC(C)(C)C(=O)O)c(C)c(C)c1Cc1ccc2[nH]cc(C(C)C)c2n1 | < 50% |
| Cc1cc(NC(=O)c2noc(=O)[nH]2)cc(C)c1Cc1ccc2[nH]cc(C(C)C)c2n1 | < 50% |

Next compound, Emax to be filled in.
Entry Cc1cc(OC(C)C(=O)O)c(C)c(C)c1Cc1ccc2[nH]cc(C(C)C)c2n1 (stereo not drawn) ; Emax = < 50%
